assay: Cmax in Sprague-Dawley rat at 10 mg/kg, po measured up to 1280 mins by HPLC-MS/MS analysis; assay type: ADME, organism-based; parameters: route oral, dose 10 mg/kg, time <=1280; conditions: in vivo
Observable: Cmax (ng/mL)
Give bare numbers, in ng/mL.

Cmax lookup needed for Cc1cc(C)n(Cc2ccc(C(=O)Nc3ccc(Cl)c(Cl)c3)s2)n1 , thanks.
190

###

experiment: Ratio of drug concentration in brain to plasma in ICR mouse at 3 mg/kg, iv measured at 0.5 hrs by LC-MS/MS analysis; type: ADME, organism-based; conditions: read-out: BPR
Assignment: determine reported Kp at 0.5 h for the given compounds.
Answers are plain numbers.

Structure string: O=C(Nc1cc(Cl)cc(Cl)c1)c1ccc(Cn2nc(C(F)(F)F)cc2C(F)(F)F)o1
Kp at 0.5 h: 0.14

Now for a further compound.
Could you share which Kp at 0.5 h value was measured for Cc1cc(C)n(Cc2ccc(C(=O)Nc3ccc(Cl)c(Cl)c3)s2)n1 ?
0.41

###

Please respond with reported inhibition at 48 h, 120 µM for every item in the list.
test: Cytotoxicity against African green monkey Vero cells assessed as cell growth inhibition at 120 uM measured after 48 hrs by CCK8 assay relative to control; assay type: cell-based; details: chlorocebus sabaeus
Remember to quote the unit after the number.

Structure string: O=C(Nc1cc(Cl)cc(Cl)c1)c1ccc(Cn2nc(C(F)(F)F)cc2C(F)(F)F)o1
Result: 95.8%

Structure string: Cc1cc(C)n(Cc2ccc(C(=O)Nc3ccc(F)cc3C)s2)n1
Result: 8.7%

Structure string: Cc1cc(C)n(Cc2ccc(C(=O)Nc3ccc(Cl)c(Cl)c3)s2)n1
Result: 22.6%

Structure string: Cc1cc(C)n(Cc2ccc(C(=O)Nc3ccc(-c4cccnc4)cc3)s2)n1
Result: -7.5%

Quick check: inhibition at 48 h, 120 µM of Cc1cc(C)n(Cc2ccc(C(=O)Nc3ccc4cc[nH]c4c3)s2)n1 ?
-0.4%

###

assay: Drug concentration in Sprague-Dawley rat plasma at 3 mg/kg, iv measured at 20 mins by LC-MS/MS analysis; format: ADME, organism-based
Observable: concentration at 20 min (ng/mL)
Give bare numbers, in ng/mL.

Query: concentration at 20 min; subject: Cc1cc(C)n(Cc2ccc(C(=O)Nc3ccc(Cl)c(Cl)c3)s2)n1
1490

###

assay: Volume of distribution at steady state in ICR mouse at 3 mg/kg, iv measured up to 24 hrs by HPLC-MS/MS analysis; type: ADME, organism-based; settings: in vivo, read-out: Vdss
Please respond with reported Vd for every item in the list.
Numbers only, in L/kg.

Structure string: O=C(Nc1cc(Cl)cc(Cl)c1)c1ccc(Cn2nc(C(F)(F)F)cc2C(F)(F)F)o1
Vd / L/kg: 12.7

Value lookup for Vd; key = Cc1cc(C)n(Cc2ccc(C(=O)Nc3ccc(Cl)c(Cl)c3)s2)n1
8.3

###

assay: Drug concentration in ICR mouse plasma at 10 mg/kg, po measured at 0.5 hrs by LC-MS/MS analysis; assay type: ADME, organism-based
Observable: concentration at 0.5 h (ng/mL)
One number for each entry, in ng/mL.

Structure string: Cc1cc(C)n(Cc2ccc(C(=O)Nc3ccc(Cl)c(Cl)c3)s2)n1
concentration at 0.5 h [ng/mL]: 760

Could you now consider this next compound?
Looking for the measured concentration at 0.5 h of O=C(Nc1cc(Cl)cc(Cl)c1)c1ccc(Cn2nc(C(F)(F)F)cc2C(F)(F)F)o1 , can you help?
580
